Biological target: EZH2 within the PRC2 complex (Homo sapiens, UniProt Q15910)
Construct: FLAG; made in house; host or cells: Sf9 cells
Sequence (Q15910 whole entry): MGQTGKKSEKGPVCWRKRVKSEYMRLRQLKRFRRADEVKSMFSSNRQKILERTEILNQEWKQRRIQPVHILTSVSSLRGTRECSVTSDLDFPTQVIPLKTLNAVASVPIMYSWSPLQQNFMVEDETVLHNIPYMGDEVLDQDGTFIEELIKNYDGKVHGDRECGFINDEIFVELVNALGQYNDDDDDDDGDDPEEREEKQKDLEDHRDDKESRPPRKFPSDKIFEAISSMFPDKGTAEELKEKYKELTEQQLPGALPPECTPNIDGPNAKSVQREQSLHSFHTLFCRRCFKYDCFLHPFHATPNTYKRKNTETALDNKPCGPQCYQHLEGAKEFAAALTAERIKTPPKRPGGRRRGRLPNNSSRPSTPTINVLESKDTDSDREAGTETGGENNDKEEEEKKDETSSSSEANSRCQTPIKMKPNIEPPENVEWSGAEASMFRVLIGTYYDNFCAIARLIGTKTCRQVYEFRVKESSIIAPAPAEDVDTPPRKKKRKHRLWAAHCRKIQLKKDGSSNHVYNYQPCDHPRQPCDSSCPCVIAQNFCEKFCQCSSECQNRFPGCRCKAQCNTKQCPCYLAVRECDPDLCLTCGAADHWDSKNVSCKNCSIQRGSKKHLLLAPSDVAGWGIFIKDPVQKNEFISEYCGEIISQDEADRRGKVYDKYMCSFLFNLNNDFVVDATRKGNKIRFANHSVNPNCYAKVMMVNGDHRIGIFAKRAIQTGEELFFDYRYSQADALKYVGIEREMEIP
Sequence (O75530 whole entry partner): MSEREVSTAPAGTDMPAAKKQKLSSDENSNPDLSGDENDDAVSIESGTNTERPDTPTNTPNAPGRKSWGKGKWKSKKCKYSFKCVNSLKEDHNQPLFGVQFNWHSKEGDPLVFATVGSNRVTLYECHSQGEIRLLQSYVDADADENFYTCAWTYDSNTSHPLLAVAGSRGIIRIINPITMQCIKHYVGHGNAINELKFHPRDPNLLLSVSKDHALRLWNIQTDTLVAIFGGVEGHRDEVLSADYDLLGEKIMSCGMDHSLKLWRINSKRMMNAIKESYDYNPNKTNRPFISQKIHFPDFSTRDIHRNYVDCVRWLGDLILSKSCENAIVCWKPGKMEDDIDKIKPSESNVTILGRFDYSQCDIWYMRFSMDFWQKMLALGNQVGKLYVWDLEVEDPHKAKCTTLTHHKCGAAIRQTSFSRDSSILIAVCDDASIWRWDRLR
Sequence (Q15022 whole entry partner): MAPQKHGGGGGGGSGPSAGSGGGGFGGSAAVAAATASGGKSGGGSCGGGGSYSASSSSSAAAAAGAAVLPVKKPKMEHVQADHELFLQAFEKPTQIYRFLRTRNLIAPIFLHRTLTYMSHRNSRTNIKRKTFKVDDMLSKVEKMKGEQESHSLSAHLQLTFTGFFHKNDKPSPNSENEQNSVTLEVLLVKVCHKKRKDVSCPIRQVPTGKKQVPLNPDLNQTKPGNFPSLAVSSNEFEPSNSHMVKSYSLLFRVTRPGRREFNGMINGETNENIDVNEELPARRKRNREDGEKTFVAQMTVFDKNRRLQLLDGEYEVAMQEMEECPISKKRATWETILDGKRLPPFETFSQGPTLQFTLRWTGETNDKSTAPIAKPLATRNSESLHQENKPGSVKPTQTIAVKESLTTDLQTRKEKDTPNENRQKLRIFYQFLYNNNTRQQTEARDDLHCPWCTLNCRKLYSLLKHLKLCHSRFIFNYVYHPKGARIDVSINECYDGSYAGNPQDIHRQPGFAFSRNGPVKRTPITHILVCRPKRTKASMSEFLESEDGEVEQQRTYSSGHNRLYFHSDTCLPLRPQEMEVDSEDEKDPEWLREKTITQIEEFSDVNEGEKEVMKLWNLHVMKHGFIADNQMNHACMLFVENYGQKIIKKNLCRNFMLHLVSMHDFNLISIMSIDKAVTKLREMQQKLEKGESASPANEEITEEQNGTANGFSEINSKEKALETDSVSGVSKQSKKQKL
Sequence (Q09028 whole entry partner): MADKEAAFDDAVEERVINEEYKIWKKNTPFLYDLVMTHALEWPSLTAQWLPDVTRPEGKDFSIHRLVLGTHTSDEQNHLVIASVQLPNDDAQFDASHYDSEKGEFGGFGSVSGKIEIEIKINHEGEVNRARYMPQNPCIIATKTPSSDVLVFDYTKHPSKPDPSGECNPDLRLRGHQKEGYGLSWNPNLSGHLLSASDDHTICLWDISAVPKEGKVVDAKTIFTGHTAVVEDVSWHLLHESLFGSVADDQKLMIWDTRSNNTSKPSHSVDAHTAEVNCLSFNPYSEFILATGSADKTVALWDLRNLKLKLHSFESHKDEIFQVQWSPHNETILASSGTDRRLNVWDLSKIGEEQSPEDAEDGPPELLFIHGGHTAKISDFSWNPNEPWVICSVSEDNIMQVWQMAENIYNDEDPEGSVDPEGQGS
Sequence (Q6ZN18 whole entry partner): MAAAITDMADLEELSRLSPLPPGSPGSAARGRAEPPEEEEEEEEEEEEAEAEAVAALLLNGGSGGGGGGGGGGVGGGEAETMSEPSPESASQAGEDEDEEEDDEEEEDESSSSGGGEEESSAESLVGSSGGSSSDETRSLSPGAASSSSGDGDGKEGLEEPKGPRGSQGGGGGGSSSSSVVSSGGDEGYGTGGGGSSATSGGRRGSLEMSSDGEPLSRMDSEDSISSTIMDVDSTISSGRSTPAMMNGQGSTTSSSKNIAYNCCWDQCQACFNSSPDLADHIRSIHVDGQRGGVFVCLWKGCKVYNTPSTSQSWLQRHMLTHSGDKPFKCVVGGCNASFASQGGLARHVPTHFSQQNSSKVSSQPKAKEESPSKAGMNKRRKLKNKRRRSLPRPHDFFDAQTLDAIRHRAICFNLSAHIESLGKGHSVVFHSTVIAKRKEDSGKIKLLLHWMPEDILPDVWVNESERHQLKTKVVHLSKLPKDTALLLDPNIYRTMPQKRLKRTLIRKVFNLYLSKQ
Assay: EZH2 methyltransferase scintillation proximity assay (SPA) with PRC2 complex
Type: biochemical
Settings: EZH2 inhibition, foregoing or analogous assay; unit inferred; read-out: IC50
Experimental: Compounds contained herein were evaluated for their ability to inhibit the methyltransferase activity of EZH2 within the PRC2 complex. […] Enzyme activity was measured in a scintillation proximity assay (SPA) where a tritiated methyl group is transferred from 3H-SAM to a lysine residue on Histone H3 of a mononucleosome, purified from HeLa cells. Mononucleosomes were captured on SPA beads and the resulting signal is read on a ViewLux plate reader. […] • 1. […] Read Plates • 1. […]
pIC50: −log10 of the molar value.
Outcome Measure: pIC50

> print(dat)
                                    compound  reported.result
 1  Cc1cc(C)c(CNC(=O)c2cc(-c3ccc(OCCN(C)C)cc3)cc3c2c(C)cn3C(C)C)c(=O)[nH]1             7.74
 2  CC[C@@H](C)n1cc(C)c2c(C(=O)NCc3c(C)cc(C)[nH]c3=O)cc(-c3cccc(CN(C)C)c3)cc21             7.49
 3  Cc1cc(C)c(CNC(=O)c2cc(-c3cc4[nH]ncc4cn3)cc3c2c(C)cn3C(C)C)c(=O)[nH]1             7.54
 4  CCC(C)n1cc(C)c2c(C(=O)NCc3c(C)cc(C)[nH]c3=O)cc(Br)cc21 (centres unmarked)             7.60
 5  Cc1cc(Cn2cccn2)c(CNC(=O)c2cc(Br)cc3c2c(C)cn3C(C)C)c(=O)[nH]1             6.00
 6  CC[C@H](C)n1cc(C)c2c(C(=O)NCc3c(C)cc(C)[nH]c3=O)cc(-c3cccc(CN(C)C)c3)cc21             8.00
 7  CCC(C)n1cc(C)c2c(C(=O)NCc3c(C)cc(C)[nH]c3=O)cc(-c3cccc(CN(C)C)c3)cc21 (centres unmarked)             7.89
 8  Cc1cc(C)c(CNC(=O)c2cc(-c3ccc(N4CCNC(C)(C)C4)nc3)cc3c2c(C)cn3C(C)C)c(=O)[nH]1             7.89
 9  Cc1cc(C)c(CNC(=O)c2cc(-c3ccc(N4CCNCC4)nc3)cc3c2c(C)cn3C2CCCC2)c(=O)[nH]1             8.52
10  Cc1cc(C)c(CNC(=O)c2cc(-c3ccc4[nH]cnc4c3)cc3c2c(C)cn3C(C)C)c(=O)[nH]1             7.85
11  Cc1cc(C)c(CNC(=O)c2cc(Br)cc3c2c(C)cn3CC(C)N(C)C)c(=O)[nH]1 (centres unmarked)             5.74
12  Cc1cc(C)c(CNC(=O)c2cc(-c3ccc4c(N)n[nH]c4c3)cc3c2c(C)cn3C(C)C)c(=O)[nH]1             8.05
13  CC[C@@H](C)n1cc(C)c2c(C(=O)NCc3c(C)cc(C)[nH]c3=O)cc(Br)cc21             7.40
14  CC[C@H](C)n1cc(C)c2c(C(=O)NCc3c(C)cc(C)[nH]c3=O)cc(Br)cc21             7.70

====

Overview of recorded IC50 for various molecules
target: EZH2 within the PRC2 complex (Homo sapiens, UniProt Q15910); construct: FLAG; made in house; host or cells: Sf9 cells; experiment: EZH2 methyltransferase scintillation proximity assay (SPA) with PRC2 complex; type: biochemical; settings: 3H-SAM methyl transfer to Histone H3 of HeLa mononucleosomes; read-out: EZH2 pIC50 (converted)
Outcome Measure: IC50 (nM)

> print(dat)
                                   molecule                           target.of.assay  outcome.measure  reported.result
1  Cc1cc(C)c(CNC(=O)c2cc(-c3ccc(CN4CCN(C)CC4)nc3)cc3c2c(C)cn3C(C)C)c(=O)[nH]1  EZH2 within the PRC2 complex (Homo sapiens, UniProt Q15910)             IC50             25.1
2  Cc1cc(C)c(CNC(=O)c2cc(B(O)O)cc3c2c(C)cn3C(C)C)c(=O)[nH]1  EZH2 within the PRC2 complex (Homo sapiens, UniProt Q15910)             IC50              468
3  Cc1cc(C)c(CNC(=O)c2cc(-c3ccc(CO)nc3)cc3c2c(C)cn3C(C)C)c(=O)[nH]1  EZH2 within the PRC2 complex (Homo sapiens, UniProt Q15910)             IC50             58.9
4  Cc1cc(C)c(CNC(=O)c2cc(Nc3ccc(N4CCN(C)CC4)nc3)cc3c2c(C)cn3C(C)C)c(=O)[nH]1  EZH2 within the PRC2 complex (Homo sapiens, UniProt Q15910)             IC50               55
5  Cc1cc(C)c(CNC(=O)c2cc(C3COC3)cc3c2c(C)cn3C(C)C)c(=O)[nH]1  EZH2 within the PRC2 complex (Homo sapiens, UniProt Q15910)             IC50              288
6  Cc1cc(C)c(CNC(=O)c2cc(NC(=O)N3CCN(C)CC3)cc3c2c(C)cn3C(C)C)c(=O)[nH]1  EZH2 within the PRC2 complex (Homo sapiens, UniProt Q15910)             IC50              129
7  Cc1cc(C)c(CNC(=O)c2cc(-c3ccc(CN4CCOCC4)nc3)cc3c2c(C)cn3C(C)C)c(=O)[nH]1  EZH2 within the PRC2 complex (Homo sapiens, UniProt Q15910)             IC50             22.9
8  Cc1cc(C)c(CNC(=O)c2cc(-c3ccc(CN4C[C@@H](C)O[C@@H](C)C4)nc3)cc3c2c(C)cn3C(C)C)c(=O)[nH]1  EZH2 within the PRC2 complex (Homo sapiens, UniProt Q15910)             IC50             36.3

These measurements were taken from patent US8975291B2.
